test.system: T1, canine OX40L, full length membrane form, expressed on HEK293 cells (canine)
T1 chain: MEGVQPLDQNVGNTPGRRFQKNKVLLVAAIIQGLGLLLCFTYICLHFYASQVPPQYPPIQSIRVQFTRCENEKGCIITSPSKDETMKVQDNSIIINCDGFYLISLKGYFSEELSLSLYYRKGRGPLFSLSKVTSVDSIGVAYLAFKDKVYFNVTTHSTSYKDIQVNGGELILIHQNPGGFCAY
protocol.summary: cell-based or functional assay
Exercise: for every item that follows, state its recorded % Signal Inhibition Average.
Give bare numbers, in %.

PMX101 (antibody, V domains shown) VH: EVQLVESGGDLVRPGGSLRLSCVASGFTFSNYHMSWVRQAPGKGLQWVAFINSGGSSTSYADAVRGRFTISRDYAKNTLYLQMNSLRAEDTAVYYCASGSIWTHFDYWGQGTLVTVSS VL: SFVLTQLPSVSVTLRQTARITCGGDIIGSKSVYWFQQKLGQAPILIIYRDDNRPTGIPERFSGASSGNTATLIISGALAEDEAHYYCQVWDSSSKAMFGGGTHLTVL	52.4
PMX026 (antibody, V domains shown, also called PMX26) VH: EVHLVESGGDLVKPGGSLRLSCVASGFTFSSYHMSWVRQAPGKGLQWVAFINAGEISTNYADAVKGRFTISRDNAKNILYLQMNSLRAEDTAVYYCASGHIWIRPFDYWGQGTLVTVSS VL: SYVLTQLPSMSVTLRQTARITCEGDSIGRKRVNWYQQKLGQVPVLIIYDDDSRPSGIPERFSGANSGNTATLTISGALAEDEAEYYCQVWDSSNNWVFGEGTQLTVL	67.1

Continue with the binder presented below.
Return % Signal Inhibition Average (reported value) for this binder: PMX155 (antibody, V domains shown) VH: ELHLVESGGDLVKPAGSLRLSCVASGFTFSSFRMSWVRQSPGKGLQFVAGINSDGYNTQYRDDVKGRFTISRDNTEKTLYLQMNNLRVEDTAMYYCVKDQGSWGGNFDFWGQGTLVTVSS VL: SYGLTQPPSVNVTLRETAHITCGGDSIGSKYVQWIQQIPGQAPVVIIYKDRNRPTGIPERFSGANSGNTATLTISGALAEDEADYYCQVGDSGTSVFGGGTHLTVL
32.7
